Data provenance: patent US20140309295A1

- run-description: in vitro
- measurement-setup: PAMPA, pH 7.4
attribute-measured: Papp at 18 h, 100 μM (×10⁻⁶ cm/s)
Write the number in ×10⁻⁶ cm/s without appending the unit.

Quick one: Papp at 18 h, 100 μM of CCC(CC)C(=O)O[C@H]1C[C@@H](C)C=C2C=C[C@H](C)[C@H](CC[C@@H]3C[C@@H](O)CC(=O)O3)[C@H]21 ?
3.1

====

- run-description: Lethality by constant exposure in water (4 days) in adult zebrafish (OECD 203)
- Format: in vivo
- measurement-setup: zebrafish, in vivo; 4 days of continuous treatment in water
attribute-measured: LD50 at 4 days

Endpoint output: LD50 at 4 days of CCC(CC)C(=O)O[C@H]1C[C@@H](C)C=C2C=C[C@H](C)[C@H](CC[C@@H]3C[C@@H](O)CC(=O)O3)[C@H]21 [NST0037] . Value?
> 100 mg/kg
